assay: Permeability of the compound by PAMPA; format: ADME; conditions: read-out: permeability
Entry class follows Papp: range A (below 3 ×10⁻⁶ cm/s), range B (3 ×10⁻⁶ cm/s to below 8 ×10⁻⁶ cm/s), range C (8 ×10⁻⁶ cm/s or more)

[[record]]
smi = "O=C1N(CCO)c2cccc(Cl)c2C12CCN(c1nc3c(c(=O)[nH]1)CCCC3)CC2"
label = "range A"

[[record]]
smi = "COc1ccccc1N1CCN(c2nc3c(c(=O)[nH]2)CCCC3)CC1"
label = "range A"

[[record]]
smi = "O=C1N(CCO)c2cc(Cl)cc(Cl)c2C12CCN(c1nc3c(c(=O)[nH]1)CCCC3)CC2"
label = "range C"

[[record]]
smi = "CS(=O)(=O)c1ccc(-c2nnc(/C=C/c3nnc(-c4ccc(C#N)cc4)o3)n2-c2ccccc2Cl)nc1"
label = "range C"

[[record]]
smi = "Oc1nc(-c2ccc(C(F)(F)F)cc2)nc2c1CSCC2"
label = "range B"

[[record]]
smi = "O=C1N(CCO)c2cccc(F)c2C12CCN(c1nc3c(c(=O)[nH]1)CCCC3)CC2"
label = "range B"

[[record]]
smi = "O=c1[nH]c(N2CCC3(CC2)CN(CCO)c2cccc(F)c23)nc2c1CCCC2"
label = "range B"

[[record]]
smi = "O=C1N(CCO)c2ccccc2C12CCN(c1nc3c(c(=O)[nH]1)CCCC3)CC2"
label = "range A"

[[record]]
smi = "O=c1[nH]c(N2CCC3(CC2)CN(CCO)c2ccccc23)nc2c1CCCC2"
label = "range C"


----------
assay: Total clearance in Sprague-Dawley rat at 1 mg/kg, iv; type: ADME, organism-based; details: in vivo
Measured clearance by item
Property name: clearance (mL/min/kg)

[[record]]
smi = "O=c1[nH]c(N2CCC3(CC2)CN(CCO)c2cc(F)cc(F)c23)nc2c1CCCC2"
quantitative_result = 9

[[record]]
smi = "CS(=O)(=O)c1ccc(-c2nnc(/C=C/c3nnc(-c4ccc(C#N)cc4)o3)n2-c2ccccc2Cl)nc1"
quantitative_result = 39.7

[[record]]
smi = "COc1ccccc1N1CCN(c2nc3c(c(=O)[nH]2)CCCC3)CC1"
quantitative_result = 68


----------
assay: Protein binding in human serum assessed as unbound fraction at 1 uM measured after 24 hrs by LC-MS/MS analysis; assay type: ADME, cell-free
Label rule, in plain words: fraction unbound at 24 h, 1 µM of 0.02 and up is 1.0, under 0.02 is 0.0.

[[record]]
smi = "O=C1N(CCO)c2cc(F)cc(F)c2C12CCN(c1nc3c(c(=O)[nH]1)CCCC3)CC2"
label = 0.0

[[record]]
smi = "O=C1N(CCO)c2cccc(Cl)c2C12CCN(c1nc3c(c(=O)[nH]1)CCCC3)CC2"
label = 0.0

[[record]]
smi = "CS(=O)(=O)c1ccc(-c2nnc(/C=C/c3nnc(-c4ccc(C#N)cc4)o3)n2-c2ccccc2Cl)nc1"
label = 1.0

[[record]]
smi = "O=c1[nH]c(N2CCC3(CC2)CN(CCO)c2cc(F)cc(F)c23)nc2c1CCCC2"
label = 0.0

[[record]]
smi = "O=c1[nH]c(N2CCC3(CC2)CN(CCO)c2cccc(Cl)c23)nc2c1CCCC2"
label = 0.0

[[record]]
smi = "COc1ccccc1N1CCN(c2nc3c(c(=O)[nH]2)CCCC3)CC1"
label = 1.0


----------
assay: physchem; conditions: phosphate buffer, pH 7.4
Property name: log10 of solubility at 1 h, 200 µM (log10 of the value in µg/mL)

[[record]]
smi = "O=c1[nH]c(N2CCC3(CC2)CNc2cccc(Cl)c23)nc2c1CCCC2"
quantitative_result = 0.41

[[record]]
smi = "O=C1NC2(CCN(c3nc4c(c(=O)[nH]3)CCCC4)CC2)c2ccccc21"
quantitative_result = 1.85

[[record]]
smi = "N#Cc1cccc2c1C1(CCN(c3nc4c(c(=O)[nH]3)CCCC4)CC1)CN2"
quantitative_result = 1.84

[[record]]
smi = "COc1ccccc1N1CCN(c2nc3c(c(=O)[nH]2)CC(C)(C)CC3)CC1"
quantitative_result = 0.38

[[record]]
smi = "O=c1[nH]c(N2CCC3(CC2)OCc2ccccc23)nc2c1CCCC2"
quantitative_result = 0.03

[[record]]
smi = "O=c1[nH]c(N2CCC3(CC2)CNc2cc(F)cc(F)c23)nc2c1CCCC2"
quantitative_result = 0.80

[[record]]
smi = "O=C1Nc2cc(F)ccc2C12CCN(c1nc3c(c(=O)[nH]1)CCCC3)CC2"
quantitative_result = 1.80

[[record]]
smi = "O=C1Oc2ccccc2C12CCN(c1nc3c(c(=O)[nH]1)CCCC3)CC2"
quantitative_result = 0.07

[[record]]
smi = "O=c1[nH]c(N2CCC3(CC2)CNc2ccccc23)nc2c1CCCC2"
quantitative_result = 0.20

[[record]]
smi = "CS(=O)(=O)c1ccc(-c2nnc(/C=C/c3nnc(-c4ccc(C#N)cc4)o3)n2-c2ccccc2Cl)nc1"
quantitative_result = 0.18


----------
assay: in vitro; conditions: mouse, liver microsomes
Description: Stability in mouse liver microsomes assessed as parent compound remaining at 1 uM measured after 30 mins in presence of NADPH by LC-MS/MS analysis
Measured remaining at 0.5 h, 1 µM by item
Property name: remaining at 0.5 h, 1 µM (%)

[[record]]
smi = "O=c1[nH]c(N2CCC3(CC2)CNc2ccccc23)nc2c1CCCC2"
unit_string = "%"
quantitative_result = 34.7

[[record]]
smi = "O=c1[nH]c(N2CCC3(CC2)COc2ccccc23)nc2c1CCCC2"
unit_string = "%"
quantitative_result = 0.1

[[record]]
smi = "O=c1[nH]c(N2CCC3(CC2)OCc2ccccc23)nc2c1CCCC2"
unit_string = "%"
quantitative_result = 0

[[record]]
smi = "O=c1[nH]c(N2CCC3(CC2)CN(CCO)c2cccc(Cl)c23)nc2c1CCCC2"
unit_string = "%"
quantitative_result = 1.1

[[record]]
smi = "COc1ccccc1C1=CCN(c2nc3c(c(=O)[nH]2)CCCC3)CC1"
unit_string = "%"
quantitative_result = 91.7

[[record]]
smi = "O=C1Nc2ccccc2C12CCN(c1nc3c(c(=O)[nH]1)CCCC3)CC2"
unit_string = "%"
quantitative_result = 0

[[record]]
smi = "O=c1[nH]c(N2CCC3(CC2)CN(CCO)c2cc(F)cc(F)c23)nc2c1CCCC2"
unit_string = "%"
quantitative_result = 18.3

[[record]]
smi = "COc1ccccc1N1CCN(c2nc3c(c(=O)[nH]2)CCCC3)CC1"
unit_string = "%"
quantitative_result = 0

[[record]]
smi = "CS(=O)(=O)c1ccc(-c2nnc(/C=C/c3nnc(-c4ccc(C#N)cc4)o3)n2-c2ccccc2Cl)nc1"
unit_string = "%"
quantitative_result = 95.8

[[record]]
smi = "O=C1N(CCO)c2cccc(Cl)c2C12CCN(c1nc3c(c(=O)[nH]1)CCCC3)CC2"
unit_string = "%"
quantitative_result = 19.1

[[record]]
smi = "O=C1Oc2ccccc2C12CCN(c1nc3c(c(=O)[nH]1)CCCC3)CC2"
unit_string = "%"
quantitative_result = 0.1

[[record]]
smi = "Oc1nc(-c2ccc(C(F)(F)F)cc2)nc2c1CSCC2"
unit_string = "%"
quantitative_result = 0

[[record]]
smi = "O=C1N(CCO)c2cc(F)cc(F)c2C12CCN(c1nc3c(c(=O)[nH]1)CCCC3)CC2"
unit_string = "%"
quantitative_result = 39.1

[[record]]
smi = "COc1ccccc1C1CCN(c2nc3c(c(=O)[nH]2)CCCC3)CC1"
unit_string = "%"
quantitative_result = 0


----------
assay: Cmax in ICR mouse at 50 mg/kg, ip; format: ADME, organism-based; set-up: dose 50 mg/kg, route intraperitoneal; conditions: in vivo
Measured Cmax by item
Property name: Cmax (µM)

[[record]]
smi = "O=C1N(CCO)c2cccc(Cl)c2C12CCN(c1nc3c(c(=O)[nH]1)CCCC3)CC2"
quantitative_result = 5.35

[[record]]
smi = "O=c1[nH]c(N2CCC3(CC2)CN(CCO)c2cc(F)cc(F)c23)nc2c1CCCC2"
quantitative_result = 199

[[record]]
smi = "O=C1N(CCO)c2cc(F)cc(F)c2C12CCN(c1nc3c(c(=O)[nH]1)CCCC3)CC2"
quantitative_result = 48.1

[[record]]
smi = "O=c1[nH]c(N2CCC3(CC2)CN(CCO)c2cccc(Cl)c23)nc2c1CCCC2"
quantitative_result = 75.6


----------
biological target: Tankyrase 1/2 (Homo sapiens, UniProt Q9H2K2+O95271)
Property name: IC50 (nM)

[[record]]
molecule = "O=c1[nH]c(N2CCC3(CC2)OCc2ccccc23)nc2c1CCCC2"
target_entity = "Tankyrase 1/2 (Homo sapiens, UniProt Q9H2K2+O95271)"
property_name = "IC50"
unit_string = "nM"
result_operator = "="
quantitative_result = 342

[[record]]
molecule = "COc1ccccc1N1CCN(c2nc3c(c(=O)[nH]2)CCCC3)CC1"
target_entity = "Tankyrase 1/2 (Homo sapiens, UniProt Q9H2K2+O95271)"
property_name = "IC50"
unit_string = "nM"
result_operator = "="
quantitative_result = 233

[[record]]
molecule = "COc1ccccc1N1CCN(c2nc3c(c(=O)[nH]2)CC(C)(C)CC3)CC1"
target_entity = "Tankyrase 1/2 (Homo sapiens, UniProt Q9H2K2+O95271)"
property_name = "IC50"
unit_string = "nM"
result_operator = ">"
quantitative_result = 10000

[[record]]
molecule = "COc1ccccc1N1CCN(c2nc3c(c(=O)[nH]2)C[S+]([O-])CC3)CC1 (stereo not given)"
target_entity = "Tankyrase 1/2 (Homo sapiens, UniProt Q9H2K2+O95271)"
property_name = "IC50"
unit_string = "nM"
result_operator = ">"
quantitative_result = 10000

[[record]]
molecule = "O=C1Nc2cccc(F)c2C12CCN(c1nc3c(c(=O)[nH]1)CCCC3)CC2"
target_entity = "Tankyrase 1/2 (Homo sapiens, UniProt Q9H2K2+O95271)"
property_name = "IC50"
unit_string = "nM"
result_operator = "="
quantitative_result = 31.1

[[record]]
molecule = "O=c1[nH]c(N2CCC3(CC2)CN(CCO)c2cccc(F)c23)nc2c1CCCC2"
target_entity = "Tankyrase 1/2 (Homo sapiens, UniProt Q9H2K2+O95271)"
property_name = "IC50"
unit_string = "nM"
result_operator = "="
quantitative_result = 83.9

[[record]]
molecule = "O=C1N(CCO)c2cc(Cl)cc(Cl)c2C12CCN(c1nc3c(c(=O)[nH]1)CCCC3)CC2"
target_entity = "Tankyrase 1/2 (Homo sapiens, UniProt Q9H2K2+O95271)"
property_name = "IC50"
unit_string = "nM"
result_operator = "="
quantitative_result = 19.8

[[record]]
molecule = "COc1cccc(N2CCN(c3nc4c(c(=O)[nH]3)CSCC4)CC2)c1"
target_entity = "Tankyrase 1/2 (Homo sapiens, UniProt Q9H2K2+O95271)"
property_name = "IC50"
unit_string = "nM"
result_operator = "="
quantitative_result = 148

[[record]]
molecule = "COc1ccc(N2CCN(c3nc4c(c(=O)[nH]3)COCC4)CC2)cc1"
target_entity = "Tankyrase 1/2 (Homo sapiens, UniProt Q9H2K2+O95271)"
property_name = "IC50"
unit_string = "nM"
result_operator = "="
quantitative_result = 2246

[[record]]
molecule = "COc1ccccc1N1CCN(c2nc3c(c(=O)[nH]2)CN(C)CC3)CC1"
target_entity = "Tankyrase 1/2 (Homo sapiens, UniProt Q9H2K2+O95271)"
property_name = "IC50"
unit_string = "nM"
result_operator = ">"
quantitative_result = 10000

